Can you tell me Emax at 10 µM for the items I'm about to list?
system: L6-myotubes; assay: Glucose uptake in differentiated L6-myotubes (Biological Example 2); format: cell-based; details: glucose uptake in differentiated L6-myotubes; compound at 10 μM, activity relative to isoproterenol at 10 μM; read-out: Biological example 2 (GU)

Entry COc1ccc(C[C@H]2CC[C@H]([C@@H](O)c3cccc(F)c3)N2)cc1 has what Emax at 10 µM?
> 75%

And what about the compound CC(=O)N[C@H]1CC[C@H](C[C@@H]2CC[C@H]([C@@H](O)c3cccc(F)c3)N2)CC1 ?
50 to 75%

And what about the compound CC(C)(C[C@H]1CC[C@@H](NC(=O)C(C)(C)C)CC1)NC[C@H](O)c1cncc(F)c1 ?
50 to 75%

And what about the compound CO[C@H]1CC[C@H](C[C@H]2CC[C@H]([C@@H](O)c3ccccc3F)N2)CC1 ?
50 to 75%

And what about the compound CC1(C)C[C@@H]([C@@H](O)c2cccc(F)c2)N1 ?
25 to 50%

And what about the compound CC(C)(C[C@H]1CC[C@H](C(=O)O)CC1)NC[C@H](O)c1cccc(F)c1 ?
50 to 75%

And what about the compound CO[C@H]1CC[C@@H](CC(C)(C)NC[C@H](O)c2cncc(F)c2)CC1 ?
> 75%

And what about the compound CC1(C)CC[C@H]([C@@H](O)c2cc(F)c(N)c(F)c2)N1 ?
> 75%
